Target: human OCT2 (Homo sapiens, UniProt O15244)
Sequence (O15244 whole entry): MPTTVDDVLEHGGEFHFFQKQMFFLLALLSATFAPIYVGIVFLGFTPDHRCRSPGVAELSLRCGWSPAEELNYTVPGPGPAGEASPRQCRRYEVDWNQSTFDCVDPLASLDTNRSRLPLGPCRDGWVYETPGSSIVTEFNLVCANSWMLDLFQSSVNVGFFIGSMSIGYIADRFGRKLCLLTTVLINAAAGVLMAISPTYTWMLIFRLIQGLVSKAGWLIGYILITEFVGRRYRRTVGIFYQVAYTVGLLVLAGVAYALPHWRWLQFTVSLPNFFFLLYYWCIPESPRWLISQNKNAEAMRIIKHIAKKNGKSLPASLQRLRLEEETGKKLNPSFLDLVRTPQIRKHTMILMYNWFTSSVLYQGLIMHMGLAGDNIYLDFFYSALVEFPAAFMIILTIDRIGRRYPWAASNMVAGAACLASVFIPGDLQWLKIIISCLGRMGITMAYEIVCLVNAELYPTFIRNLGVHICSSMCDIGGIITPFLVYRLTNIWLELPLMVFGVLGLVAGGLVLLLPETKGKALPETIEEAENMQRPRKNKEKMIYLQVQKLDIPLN
Test: Uptake trans-stimulation assay of OCT2-mediated DiASP uptake in HEK-OCT2 cells
Assay type: cell-based
Parameters: host or cells: HEK293 (HEK-OCT2)
Settings: HEK-OCT2 cells preloaded 30 min with substrate, 0.01–10 mM or 0.1–100 µM range
ASSAY_READOUT: Trans-modulation of OCT2-mediated DiASP uptake (in words)

# COMPOUND_STRING, OBSERVED_MEASUREMENT
measured = [
    ("C[N+](C)(C)CCO", "trans-stimulate"),
    ("CN(C)C(=N)N=C(N)N", "trans-stimulate"),
    ("CC(=O)OCC[N+](C)(C)C", "trans-stimulate"),
    ("NCCCCN=C(N)N", "trans-stimulate"),
]

###

IC50 values for the compounds below.
Target: human OCT2 (Homo sapiens, UniProt O15244)
Experiment: Cis-inhibition of OCT2-mediated DiASP uptake in HEK-OCT2 cells

# COMPOUND, IC50 / µM
measured = [
    ("CC(=O)OCC[N+](C)(C)C [Acetylcholine, acetylcholine]", 530),
    ("Nc1ccn([C@@H]2CS[C@H](CO)O2)c(=O)n1 [Lamivudine, lamivudine]", 1900),
    ("CCN1CCCC1CNC(=O)c1cc(S(=O)(=O)CC)c(N)cc1OC (stereo not drawn) [Amisulpride, amisulpride]", 40),
    ("NCCCCN=C(N)N [Agmatine, agmatine]", 410),
    ("NCCc1c[nH]c2ccc(O)cc12 [Serotonin, serotonin]", 180),
    ("C[N+](C)(C)CCO [Choline, choline]", 1330),
    ("CN/C(=N/CCSCc1nc[nH]c1C)NC#N [Cimetidine, cimetidine]", 79.6),
    ("CNC[C@H](O)c1ccc(O)c(O)c1 [Epinephrine, epinephrine]", 1490),
    ("COCCn1c2c([n+](Cc3cnccn3)c1C)C(=O)c1ccccc1C2=O [Sepantronium, sepantronium]", 7.04),
    ("CN(C)C(=N)N=C(N)N [Metformin, metformin]", 1140),
    ("Cc1ncc(C[n+]2csc(CCO)c2C)c(N)n1 [Thiamine, thiamine]", 270),
    ("NCCc1ccc(O)c(O)c1 [Dopamine, dopamine]", 2390),
]

###

Molecular target: human OCT2 (Homo sapiens, UniProt O15244)
Assay: Cis-inhibition of OCT2-mediated DiASP uptake in HEK-OCT2 cells
Settings: read-out: IC50 towards OCT2-mediated uptake of DiASP (cis-inhibition); HEK-OCT2 cells, 10 µM DiASP, 5 min, 37 °C; 95% CI in brackets
pIC50: −log10 of the molar value.
The entries below come with measured pIC50 values attached.
ASSAY_READOUT: pIC50

# COMPOUND_STRING, OBSERVED_MEASUREMENT
rows = [
    ("C[n+]1ccc(-c2ccccc2)cc1", 6.04),
    ("CC[N+](CC)(CC)CC", 3.74),
]
